- assayed system: HDAC2 (Homo sapiens, UniProt Q92769)
- Sequence (Q92769 whole entry): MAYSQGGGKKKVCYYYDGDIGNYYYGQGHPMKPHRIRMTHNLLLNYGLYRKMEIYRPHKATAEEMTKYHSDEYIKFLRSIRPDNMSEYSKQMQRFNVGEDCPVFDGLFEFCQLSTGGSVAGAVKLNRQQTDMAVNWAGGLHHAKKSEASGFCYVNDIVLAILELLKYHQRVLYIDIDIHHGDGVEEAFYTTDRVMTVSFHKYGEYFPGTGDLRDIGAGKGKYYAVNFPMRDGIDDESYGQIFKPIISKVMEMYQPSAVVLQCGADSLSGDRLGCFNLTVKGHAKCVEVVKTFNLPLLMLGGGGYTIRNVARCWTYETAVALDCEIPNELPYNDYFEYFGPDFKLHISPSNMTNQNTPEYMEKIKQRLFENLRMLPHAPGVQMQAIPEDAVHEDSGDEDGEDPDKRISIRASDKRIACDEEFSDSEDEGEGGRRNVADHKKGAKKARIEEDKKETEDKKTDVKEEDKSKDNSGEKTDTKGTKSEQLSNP
- protocol notes: Inhibition of individual recombinant KDACs
readout label: pIC50
Note on units: pIC50 is unitless, being -log10 of a concentration expressed in mol/L.

Exam item: Endpoint output: pIC50 of C=C(CN1CCN(c2cccc(C(F)(F)F)n2)CC1)c1ccc(C(=O)Nc2ccccc2N)cc1 . Value?
Marked response: 5.40

====

- Test system: EKVX
- protocol notes: NCI-60 cytotoxicity screen
- Type: cell-based
- run parameters: Homo sapiens, NCI-60, 48 h, NSCLC
IC50 values by entry
Field format: number, assumed µM, no unit text.

Exam item: Value lookup for IC50; key = C=C(CN1CCN(c2ccccn2)CC1)c1ccc(C(=O)Nc2ccccc2N)cc1 [Compound 6]
Marked response: 5.33

Exam item: Give the measured IC50 of C=C(CN1CCN(c2cccc(C(F)(F)F)c2)CC1)c1ccc(C(=O)Nc2ccccc2N)cc1 [Compound 4] .
Marked response: 2.92

Exam item: Recorded IC50 of Nc1ccccc1NC(=O)c1ccc(CNC(=O)OCc2cccnc2)cc1 [Compound 1, Entinostat, reference compound] , please.
Marked response: 3.26

Exam item: IC50 lookup needed for C=C(CN1CCN(c2ccccc2C(F)(F)F)CC1)c1ccc(C(=O)Nc2ccccc2N)cc1 [Compound 3] , thanks.
Marked response: 6.7

Exam item: Returns the measured IC50 for the input compound. Input: C=C(CN1CCN(c2cccc(C(F)(F)F)n2)CC1)c1ccc(C(=O)Nc2ccccc2N)cc1 [Compound 7]
Marked response: 24.3

Now look at this one.
Exam item: Value lookup for IC50; key = C=C(CN1CCN(c2ccc(C(F)(F)F)cc2)CC1)c1ccc(C(=O)Nc2ccccc2N)cc1 [Compound 5]
Marked response: 12.4
